Biological target: T1, AAV9 (adeno-associated virus 9)
T1 construct: also called adeno-associated virus serotype 9
Assay: SPR, AAV amine-coupled to CM5 chip;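 note: nanobodies flowed as analyte at seven concentrations spanning 1–100 nM over immobilized AAV (500–800 RU), kinetic constants derived by fitting the binding curves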
testReadout: koff (s⁻¹)
# value in s⁻¹; strip the unit string

A4-076 (VHH) VHH: VQLQESGGGLVHSGGSLRLSCAASGSMFSLNTMGWYRQAPGKQRELVATITRGGGTSYADSVKGRFTISRDNAKNTVYLQMNSLRPEDTAVYYCHVDELRQSSWTTSNLWGQGTQVTVSS: 6e-05

# input for lookup
Record A4-060 (VHH) VHH: VQLQESGGGLVQPGGSLRLSCAASGSTFSLNTMGWYRQAPGKQREIVATVTRGGSTNYAESVKGRFTISRDNAKNTVYLQMNSLRPEDTAVYYCHVDEVRQSTWTTSNLWGQGTQVTVSS , field koff: 0.00176
